// provenance: PubChem BioAssay (NCI)

system: OVCAR-8 ovarian; assay: NCI-60 one-dose screen, 48 h; details: 10 µM unless noted
The panel holds about 83,000 compounds, 20% with a hit somewhere; the sample as a whole holds those more often. The source made the active and inactive calls. The calls were made as follows: active = growth percent below 10; inactive = the rest.
Classes used: class 1 for active, class 0 for inactive

[[record]]
compound = "CCCC/C=N/NC(=S)NCc1ccccc1"
assigned_category = "class 0"

[[record]]
compound = "COCc1cnccc1NC1CCCCCC1"
assigned_category = "class 0"

[[record]]
compound = "O=C(NCCc1ccccc1)Nc1ccc2cc3ccc(NC(=O)NCCc4ccccc4)cc3nc2c1"
assigned_category = "class 0"

[[record]]
compound = "Cc1cc2c(c(C)c1Cl)C(=O)/C(=C/c1ccc(O)c(O)c1)O2"
assigned_category = "class 0"

[[record]]
compound = "CC/C(=C\\c1ccc(OC)cc1)C(=O)c1ccc(OC)cc1"
assigned_category = "class 0"

[[record]]
compound = "COc1cc(/C=N/NC(=O)c2cnn3c2NC(c2ccccc2)C3)ccc1OCc1ccccc1 (stereo unspecified)"
assigned_category = "class 1"

[[record]]
compound = "O=C1Nc2cc(-c3cccc([N+](=O)[O-])c3)ccc2/C1=C/c1ccc[nH]1"
assigned_category = "class 0"

[[record]]
compound = "COc1cc(/C(C)=C(\\c2ccc(Cl)cc2)c2ccc(OCCN3CCCC3)cc2)ccc1F"
assigned_category = "class 0"

[[record]]
compound = "Cc1ccccc1NS(=O)(=O)c1cccc(C(=O)Nc2ccc(Br)cc2)c1"
assigned_category = "class 0"

[[record]]
compound = "Cc1cccc(NC(=O)Nc2ccc(-n3cnc4cc(-c5ccc(O)cc5)ccc43)cc2)c1"
assigned_category = "class 0"

[[record]]
compound = "CN(CCN(C)c1ccc(C(=N)N)cc1)c1ccc(C(=N)N)cc1"
assigned_category = "class 0"


----------
Reported growth is given for each of the following compounds.
system: SK-OV-3 ovarian; experiment: NCI-60 one-dose screen, 48 h (100 = growth as untreated, 0 = no growth, -100 = all killed); conditions: 10 µM unless noted
About 83,000 compounds went through this panel and 20% of them were active in at least one assay; those are over-represented in the sample as a whole.
Quantity Name: growth (%)

[[record]]
compound = "CN[C@@H](C)C(=O)N[C@H]1CCS[C@H]2CC(C)(C)[C@@H](C(=O)N[C@H]3c4ccccc4C[C@H]3OCC#CC#CCO[C@@H]3Cc4ccccc4[C@@H]3NC(=O)[C@H]3N4C(=O)[C@@H](NC(=O)[C@H](C)NC)CCS[C@H]4CC3(C)C)N2C1=O"
measured = -71.6

[[record]]
compound = "Cc1nnc2c(Cc3ccccc3)nc3ccccc3n12"
measured = 99.1

[[record]]
compound = "CC1(C)CC[C@]23CC[C@]4(C)[C@H](CC[C@@H]5[C@@]6(C)CCCNC(C)(C)[C@@H]6CC[C@]54C)[C@H]2[C@H]1OC3"
measured = 75.8

[[record]]
compound = "CCOC(=O)c1ccc2c(c1)ncn2-c1ccc(NC(=O)Nc2cccc(C)c2)cc1"
measured = 97.5

[[record]]
compound = "COc1ccc(-c2nc3sccn3c2/C=C/C(=O)c2ccc3c(c2)OCO3)cc1"
measured = 170

[[record]]
compound = "CCOC(=O)C1=C(CCl)NC(=O)NC1c1ccc2c(c1)OCO2 (stereo not drawn)"
measured = 81.8

[[record]]
compound = "CCNc1nc2cc(Nc3ccnc4cc(Cl)ccc34)ccc2o1"
measured = 84.8

[[record]]
compound = "COc1ccc(-c2nc(S(=O)(=O)c3ccccc3)c(S(=O)CC(=O)N3CCC(C)CC3)o2)cc1 (stereo not drawn)"
measured = 92.2


----------
tested on: U251 CNS; assay: NCI-60 one-dose screen, 48 h (100 = growth as untreated, 0 = no growth, -100 = all killed); settings: 10 µM unless noted
The panel holds about 83,000 compounds, 20% with a hit somewhere; the sample as a whole holds those more often.
Please use label 1 whenever growth is not below 20%, and label 0 whenever it is.

[[record]]
compound = "ClC1=C(Br)C(Br)(Br)C(=C(Br)Br)C1(Br)Br"
experimental_system = "U251 CNS"
assigned_category = "label 1"

[[record]]
compound = "COc1c(Cl)c2c(c(OC)c1OC)-c1ccc(SC)c(=O)cc1[C@@H](NC(=O)OCC(F)(F)F)CC2"
experimental_system = "U251 CNS"
assigned_category = "label 1"

[[record]]
compound = "CNCCOc1nc2c3cnccc3cc(-c3cc(OC)c(OC)c(OC)c3)c2c2ccncc12"
experimental_system = "U251 CNS"
assigned_category = "label 0"

[[record]]
compound = "OCc1cnccc1NCCCOc1ccccc1"
experimental_system = "U251 CNS"
assigned_category = "label 1"

[[record]]
compound = "COc1ccc2nc(-c3ccc(-c4noc(-c5cc(OC)c(OC)c(OC)c5)n4)cc3)[nH]c2c1"
experimental_system = "U251 CNS"
assigned_category = "label 1"

[[record]]
compound = "COc1ccc(C(=O)c2cc(C)c(OC)c(C)c2)c(OC)c1OC(=O)C(Cl)Cl"
experimental_system = "U251 CNS"
assigned_category = "label 0"

[[record]]
compound = "O=S(=O)(NCCNc1nccc(-c2c(-c3cccc(F)c3)nc3sccn23)n1)c1ccccc1"
experimental_system = "U251 CNS"
assigned_category = "label 1"

[[record]]
compound = "CCN(CC)c1ccc(/C=N/NC(=O)CSc2nc3ccccc3c(=O)n2CCc2ccc(S(N)(=O)=O)cc2)c(O)c1"
experimental_system = "U251 CNS"
assigned_category = "label 1"

[[record]]
compound = "COc1cc(C2C3=C(COC3=O)N(CCO)c3cc4c(cc32)CCC4)cc(OC)c1OC (centres undefined)"
experimental_system = "U251 CNS"
assigned_category = "label 0"


----------
System: HS 578T breast
Assay: NCI-60 one-dose screen, 48 h (100 = growth as untreated, 0 = no growth, -100 = all killed)
Conditions: 10 µM unless noted
Description: Growth inhibition of the HS 578T human tumor cell line is measured as a screen for anti-cancer activity. Cells are grown in 96 well plates and exposed to the test compound for 48 hours. Compounds are tested at a single concentration, which is 10^-5 M for most compounds. The reported endpoint is percent growth (GI% or GIPRCNT), where numbers from 0 - 100% represent growth inhibition, and numbers from -100% - 0 represent cell death. For example, a value of 40 represents 60% growth inhibition. […]
Compounds without any hit were thinned out: in the full panel of roughly 83,000, 20% have a hit.
Quantity Name: growth (%)

[[record]]
compound = "CCN(Cc1ccccc1)c1ccc(C=O)cc1"
unit_descriptor = "%"
measured = 120

[[record]]
compound = "Cc1cc2c(C(=O)NCC#N)cccc2n1-c1nc2c(c(NCc3ccccc3)n1)CCCC2"
unit_descriptor = "%"
measured = 12

[[record]]
compound = "CCOC(=O)c1cc(C(=O)c2ccc(OC)c(OC)c2)n2ccc(/C=C/c3cc[n+](CC(=O)c4ccc(OC)c(OC)c4)cc3)cc12"
unit_descriptor = "%"
measured = 102

[[record]]
compound = "C#CCNC(=O)[C@]1(C)CC[C@]2(C)CC[C@@H]3C(=CC[C@H]4[C@@]3(C)CC[C@H]3C(C)(C)C(=O)CC[C@]43C)[C@@H]2C1"
unit_descriptor = "%"
measured = 126

[[record]]
compound = "COc1cc(C(=O)Nc2cc3c(cc2Oc2cc(C)cc(C)c2)C(=O)N(C)[C@@H](CC(=O)N(C)O)C(=O)N3)c(Br)c(OC)c1OC"
unit_descriptor = "%"
measured = -18.1

[[record]]
compound = "CCOC(=O)CCN(CC(C)C)C(=S)Nc1ccccc1"
unit_descriptor = "%"
measured = 117

[[record]]
compound = "O=C(C1CCC1)N1N=C(c2ccc(-n3ccc(C(F)(F)F)n3)cc2)CC1c1ccc[nH]1 (centres undefined)"
unit_descriptor = "%"
measured = 101

[[record]]
compound = "Cc1ncc(C(=O)Nc2ccc(CN3CCN(C)CC3)c(C(F)(F)F)c2)cc1C#Cc1cnc(N)cc1C#N"
unit_descriptor = "%"
measured = -18.2

[[record]]
compound = "N=C(N)c1ccc(OCCCCCCCCCCOc2ccc(C(=N)N)cc2)cc1"
unit_descriptor = "%"
measured = -56.9

[[record]]
compound = "CC(C)(C)c1cc(/C=N/NC(=O)c2ccccc2NC(=O)c2cccs2)c(O)c(C(C)(C)C)c1"
unit_descriptor = "%"
measured = 71.5

[[record]]
compound = "Cc1ccc(-n2c3c(c(-c4ccccc4)c2-c2ccccc2)C2=NCCN2C=N3)cc1"
unit_descriptor = "%"
measured = 94.8

[[record]]
compound = "N#CC1C(C#N)C2c3ccccc3C=CN2C1C(=O)c1ccc(Br)cc1 (centres undefined)"
unit_descriptor = "%"
measured = 103

[[record]]
compound = "O=C(CCN1CCCC1)Nc1ccc2c(Nc3ccc(F)cc3)c3ccccc3nc2c1"
unit_descriptor = "%"
measured = 25.2

[[record]]
compound = "CC1(C)NCCC[C@]2(C)[C@H]3CC(=O)[C@H]4[C@@H]5C[C@](C)(CO)CC[C@]5(C)CC[C@@]4(C)[C@]3(C)CC[C@@H]12"
unit_descriptor = "%"
measured = 99.4

[[record]]
compound = "COc1cc(OC)cc(C(=O)C[n+]2cccc3cc[nH]c32)c1"
unit_descriptor = "%"
measured = 101

[[record]]
compound = "NS(=O)(=O)c1ccc(CCN2C(=O)C3C(C2=O)C2(Cl)C(Cl)=C(Cl)C3(Cl)C2(Cl)Cl)cc1 (centres undefined)"
unit_descriptor = "%"
measured = 96.8

[[record]]
compound = "OCc1cnccc1NCCCOc1ccccc1"
unit_descriptor = "%"
measured = 98.7

[[record]]
compound = "O=C(Cn1c[n+](CC(=O)c2ccc([N+](=O)[O-])cc2)c2ccccc21)Nc1cccc2cccnc12"
unit_descriptor = "%"
measured = 74.6

[[record]]
compound = "O=S(=O)(NCCNc1nccc(-c2c(-c3cccc(F)c3)nc3sccn23)n1)c1ccc(Br)cc1"
unit_descriptor = "%"
measured = 63.6

